biological target: 5'-AMP-activated protein kinase catalytic subunit alpha-1 (Homo sapiens, UniProt Q13131); further: in the data inactive means no Kd found up to 30 µM
Sequence (Q13131 whole entry): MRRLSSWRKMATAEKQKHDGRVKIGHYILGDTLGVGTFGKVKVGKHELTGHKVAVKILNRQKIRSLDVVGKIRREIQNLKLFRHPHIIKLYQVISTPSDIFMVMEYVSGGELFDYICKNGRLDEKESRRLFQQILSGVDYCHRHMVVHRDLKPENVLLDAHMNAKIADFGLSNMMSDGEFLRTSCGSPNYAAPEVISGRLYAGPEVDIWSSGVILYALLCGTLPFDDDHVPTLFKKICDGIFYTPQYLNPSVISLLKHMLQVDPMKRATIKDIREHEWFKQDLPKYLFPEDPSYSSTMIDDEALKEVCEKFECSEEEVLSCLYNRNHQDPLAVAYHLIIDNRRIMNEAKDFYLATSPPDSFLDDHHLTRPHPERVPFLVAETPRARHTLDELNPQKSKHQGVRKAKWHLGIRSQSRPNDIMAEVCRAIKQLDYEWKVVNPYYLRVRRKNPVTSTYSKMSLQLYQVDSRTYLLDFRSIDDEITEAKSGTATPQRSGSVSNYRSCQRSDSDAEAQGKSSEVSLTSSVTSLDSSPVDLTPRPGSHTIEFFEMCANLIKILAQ
Calls of active or inactive are those of the source.
Answer with one of the outcomes yes = active, no = inactive

compound="O=C(Cc1ccc(-c2ccc(OCCN3CCOCC3)cc2)cn1)NCc1ccccc1 [TIRBANIBULIN]" label=no
compound="CNC(=O)c1cc(Oc2ccc(NC(=O)Nc3cc(C(C)(C)C)nn3-c3ccc4ncccc4c3)c(F)c2)ccn1 [REBASTINIB]" label=no
compound="C[C@@H](NC(=O)c1ncnc(N)c1Cl)c1ncc(C(=O)Nc2cc(C(F)(F)F)c(Cl)cn2)s1 [TOVORAFENIB]" label=no

Consider the record given below.
Please indicate how the test categorized NC(=O)Nc1cc(-c2cccc(F)c2)sc1C(=O)N[C@H]1CCCNC1 [AZD-7762] .
yes

----------
biological target: Dual specificity mitogen-activated protein kinase kinase 1 (Homo sapiens, UniProt Q02750); further: in the data inactive means no Kd found up to 30 µM
Sequence (Q02750 whole entry): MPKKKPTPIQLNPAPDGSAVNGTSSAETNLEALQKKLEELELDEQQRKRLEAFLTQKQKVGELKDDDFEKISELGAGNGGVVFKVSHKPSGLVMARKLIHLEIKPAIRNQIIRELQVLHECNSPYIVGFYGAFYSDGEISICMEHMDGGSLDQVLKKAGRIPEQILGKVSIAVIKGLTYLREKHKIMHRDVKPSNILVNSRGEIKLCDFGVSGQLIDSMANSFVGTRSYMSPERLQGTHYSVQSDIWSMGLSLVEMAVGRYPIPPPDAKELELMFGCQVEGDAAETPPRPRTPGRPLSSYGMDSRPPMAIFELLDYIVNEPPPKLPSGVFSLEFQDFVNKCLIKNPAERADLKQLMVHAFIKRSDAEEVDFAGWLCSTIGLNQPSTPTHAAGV
Activity calls are given as the source filed them.
# output must be one of active, inactive

Below, 3 molecules whose answers are already recorded.
smiles_repr=CN1C/C=C/CCOc2cccc(c2)-c2ccnc(n2)Nc2cccc(c2)C1 label=inactive
smiles_repr=C=CC(=O)N1CCC[C@H](n2c(=O)n(-c3ccc(Oc4ccccc4)cc3)c3c(N)ncnc32)C1 label=inactive
smiles_repr=CCOc1cc2ncc(C#N)c(Nc3ccc(F)c(Cl)c3)c2cc1NC(=O)/C=C/CN(C)C label=active

Query molecule follows.
# fetch the recorded call for CN1CCN(CCOc2cc(OC3CCOCC3)c3c(Nc4c(Cl)ccc5c4OCO5)ncnc3c2)CC1 here
inactive

----------
molecular target: Serine/threonine-protein kinase 10 (Homo sapiens); further: in the data inactive means no Kd found up to 30 µM
Sequence (O94804 whole entry): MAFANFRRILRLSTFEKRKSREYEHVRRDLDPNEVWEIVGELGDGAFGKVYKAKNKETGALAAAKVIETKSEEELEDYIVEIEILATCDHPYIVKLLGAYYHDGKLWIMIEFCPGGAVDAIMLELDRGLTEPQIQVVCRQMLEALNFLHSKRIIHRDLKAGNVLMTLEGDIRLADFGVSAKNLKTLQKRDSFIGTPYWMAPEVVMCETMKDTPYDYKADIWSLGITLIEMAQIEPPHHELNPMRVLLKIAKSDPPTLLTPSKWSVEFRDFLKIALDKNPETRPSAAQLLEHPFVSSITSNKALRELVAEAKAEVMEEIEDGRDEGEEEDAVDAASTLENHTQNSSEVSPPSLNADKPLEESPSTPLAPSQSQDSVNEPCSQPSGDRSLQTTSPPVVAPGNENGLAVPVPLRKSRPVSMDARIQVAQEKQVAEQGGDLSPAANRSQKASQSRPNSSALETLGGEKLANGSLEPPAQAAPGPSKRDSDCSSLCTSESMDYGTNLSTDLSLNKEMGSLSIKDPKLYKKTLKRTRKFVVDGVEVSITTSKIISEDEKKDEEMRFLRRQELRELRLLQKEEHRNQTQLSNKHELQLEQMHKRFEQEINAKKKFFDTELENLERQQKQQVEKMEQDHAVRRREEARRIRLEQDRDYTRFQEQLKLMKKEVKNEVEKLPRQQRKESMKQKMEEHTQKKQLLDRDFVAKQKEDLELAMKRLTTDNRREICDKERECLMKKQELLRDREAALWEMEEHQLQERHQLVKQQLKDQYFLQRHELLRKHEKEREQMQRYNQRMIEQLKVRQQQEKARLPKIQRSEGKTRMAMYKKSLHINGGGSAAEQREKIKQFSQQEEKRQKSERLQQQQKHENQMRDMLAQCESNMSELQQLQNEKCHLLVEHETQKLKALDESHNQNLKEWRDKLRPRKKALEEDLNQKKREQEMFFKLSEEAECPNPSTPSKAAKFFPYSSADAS
Active and inactive are the calls of the source.
Your reply should match one of these outcome classes. active, inactive

Reference set, count: 4
smiles_repr=CN(C[C@@H]1COCCO1)S(=O)(=O)Nc1ccc2ccc3ncc(-c4cnn(C)c4)cc3c(=O)c2c1 assay_system="Serine/threonine-protein kinase 10 (Homo sapiens)" label=inactive
smiles_repr=NC(=O)c1c(OCc2c(F)cc(Br)cc2F)nsc1NC(=O)NCCCCN1CCCC1 assay_system="Serine/threonine-protein kinase 10 (Homo sapiens)" label=active
smiles_repr=Cc1cccc(-c2nn3c(c2-c2ccnc4ccc(C(N)=O)cc24)CCC3)n1 assay_system="Serine/threonine-protein kinase 10 (Homo sapiens)" label=inactive
smiles_repr=CN1C/C=C/CCOc2cccc(c2)-c2ccnc(n2)Nc2cccc(c2)C1 assay_system="Serine/threonine-protein kinase 10 (Homo sapiens)" label=active

Recorded test call requested for CCn1c(C(=O)N(C2CC2)C2CC2)cc2c3c(ncn3C)c(Nc3cc(C)n(C)n3)nc21
inactive

How was CCn1cc(-c2ccnc3[nH]c(-c4cccc(CN(C)C)c4)cc23)c(-c2ccc(NC(=O)N(C)C)cc2)n1 classified in this test?
inactive

Record lookup: outcome of this test for Cn1cc(-c2cnn3c(N)c(Br)c([C@@H]4CCCNC4)nc23)cn1 ?
active

Identify the outcome logged in this assay for the compound shown: CNC(=O)c1nn(C)c2c1C(C)(C)Cc1cnc(Nc3ccc(N4CCN(C)CC4)cc3)nc1-2
inactive

----------
biological target: MAP/microtubule affinity-regulating kinase 4 (Homo sapiens); further: in the data inactive means no Kd found up to 30 µM
Sequence (Q96L34 whole entry): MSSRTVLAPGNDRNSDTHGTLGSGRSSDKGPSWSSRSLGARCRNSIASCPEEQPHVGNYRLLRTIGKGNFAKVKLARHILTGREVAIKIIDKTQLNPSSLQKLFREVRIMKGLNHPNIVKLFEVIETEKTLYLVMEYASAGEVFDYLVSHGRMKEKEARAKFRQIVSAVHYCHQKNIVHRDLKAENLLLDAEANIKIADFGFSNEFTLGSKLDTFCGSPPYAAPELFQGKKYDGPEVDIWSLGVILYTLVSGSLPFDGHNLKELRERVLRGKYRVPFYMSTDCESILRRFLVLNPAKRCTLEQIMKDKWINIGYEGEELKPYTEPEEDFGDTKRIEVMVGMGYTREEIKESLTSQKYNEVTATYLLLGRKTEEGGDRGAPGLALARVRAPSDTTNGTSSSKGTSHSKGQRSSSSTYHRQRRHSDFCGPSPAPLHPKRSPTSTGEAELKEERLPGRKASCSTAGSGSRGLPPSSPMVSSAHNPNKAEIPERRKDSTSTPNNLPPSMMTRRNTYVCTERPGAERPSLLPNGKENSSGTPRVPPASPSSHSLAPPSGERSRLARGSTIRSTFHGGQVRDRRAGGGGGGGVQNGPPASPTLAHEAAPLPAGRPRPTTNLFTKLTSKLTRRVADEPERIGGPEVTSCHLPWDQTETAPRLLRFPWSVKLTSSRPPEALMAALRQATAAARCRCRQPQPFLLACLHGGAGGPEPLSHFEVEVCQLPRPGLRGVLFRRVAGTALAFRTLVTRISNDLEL
Activity calls are given as the source filed them.
Select the matching outcome among true (1) (active), false (0) (inactive)

See these solved cases before continuing.
compound="CCn1cc(-c2ccnc3[nH]c(-c4cccc(CN(C)C)c4)cc23)c(-c2ccc(NC(=O)N(C)C)cc2)n1 [GSK-1070916]" assay_system="MAP/microtubule affinity-regulating kinase 4 (Homo sapiens)" label="false (0)"
compound="Cn1cnc2c(F)c(Nc3ccc(Br)cc3F)c(C(=O)NOCCO)cc21 [BINIMETINIB]" assay_system="MAP/microtubule affinity-regulating kinase 4 (Homo sapiens)" label="false (0)"
compound="C=CC(=O)Nc1cc2c(Nc3ccc(F)c(Cl)c3)ncnc2cc1C#CC(C)(C)N1CCN(C)CC1 [AV-412 FREE BASE]" assay_system="MAP/microtubule affinity-regulating kinase 4 (Homo sapiens)" label="false (0)"
compound="Cn1cc(-c2cnc3ccc4ccc(CS(=O)(=O)NCc5ccccn5)cc4c(=O)c3c2)cn1 [MK-8033]" assay_system="MAP/microtubule affinity-regulating kinase 4 (Homo sapiens)" label="false (0)"

Called result for CC(=O)NCC(=O)N1[C@@H]2CC[C@H]1c1ccc(Nc3ncc(C(F)(F)F)c(NC4CCC4)n3)cc12 [PF-03814735]
true (1)
